# Test system: SD rats
# assayProcedure: animal or person
# Assay type: in vivo
# runConditions: SD rats, tail vein injection
readoutKind: Quality of recovery

>>> measuredvalue("Cc1cnc2n1-c1cc(Br)c(Br)cc1C(c1ccccn1)=N[C@H]2CCC(=O)OCOC(=O)OC(C)C")
"++ (“++” means 1-3 min)"
>>> measuredvalue("COC(=O)C1(OC(=O)CC[C@@H]2N=C(c3ccccn3)c3c(Cl)cc(C(F)(F)F)cc3-n3c(C)cnc32)CC1")
"++ (“++” means 1-3 min)"
>>> measuredvalue("CCOC(=O)OCOC(=O)CC[C@@H]1N=C(c2ccccn2)c2cc(Br)ccc2-n2c(C)cnc21")
"++ (“++” means 1-3 min)"
>>> measuredvalue("COC(=O)C(C)(C)OC(=O)CC[C@@H]1N=C(c2ccccn2)c2cc(Cl)c(Cl)c(Cl)c2-n2c(C)cnc21")
"++ (“++” means 1-3 min)"

# evaluate next
### Prompt Quality of recovery of COC(=O)C1(OC(=O)CC[C@@H]2N=C(c3ccccn3)c3cc(Cl)c(C(F)(F)F)cc3-n3c(C)cnc32)CC1 [Example 25] on SD rats?
### Response ++ (“++” means 1-3 min)

====

# System: KM mice
# assayProcedure: animal or person
# Format: in vivo
# runConditions: mouse, in vivo
readoutKind: 2ED50 duration (min)
State the answer as a number, implicitly in min.

Please review the entries below; each comes with its answer.
>>> measuredvalue("Cc1c(Cl)c(C(F)(F)F)cc2c1C(c1ccccn1)=N[C@@H](CCC(=O)OC(C)C(=O)OC(C)C)c1ncc(C)n1-2 (stereo partly shown)")
3.39
>>> measuredvalue("CCOC(=O)OCOC(=O)CC[C@@H]1N=C(c2ccccn2)c2cc(Cl)cc(F)c2-n2c(C)cnc21")
3.09
>>> measuredvalue("CCOC(=O)C1(OC(=O)CC[C@@H]2N=C(c3ccccn3)c3cc(Cl)c(Cl)cc3-n3c(C)cnc32)CC1")
3.45

Now for the compound whose 2ED50 duration we want.
### Prompt Lab note: need 2ED50 duration for COC(=O)OCOC(=O)CC[C@@H]1N=C(c2ccccn2)c2cc(Cl)c(F)cc2-n2c(C)cnc21 on KM mice, anyone have it?
### Response 3.27

====

Quick list: 2ED50 duration per entry.
# System: KM mice
# assayProcedure: animal or person
# Type: in vivo
# runConditions: KM mice, single tail vein injection at 2×ED50; time from disappearance to recovery of righting reflex
A number alone suffices; assume min.

>>> measuredvalue("CCC(CC)OC(=O)OC(OC(=O)CC[C@@H]1N=C(c2ccccn2)c2cc(Cl)c(OC(F)(F)F)cc2-n2c(C)cnc21)C1CC(F)C(CC)C1 (stereo partly drawn) [Example 68]")
3.09

Could you now consider this next molecule?
### Prompt Any idea what its 2ED50 duration is? The molecule is CCc1c(Br)cc2c(c1Cl)-n1c(C)cnc1[C@H](CCC(=O)OC(C)(CC)SC(=O)OC)N=C2c1ccccn1 (stereo partly drawn) [Example 63]
### Response 3.14

====

# Test system: KM mice
# assayProcedure: animal or person
# Type: in vivo
# runConditions: Mus musculus
readoutKind: ED50 (mg/kg)
Reply with just the number (in mg/kg).

Look over these answered cases.
>>> measuredvalue("CCOC(=O)OCOC(=O)CC[C@@H]1N=C(c2ccccn2)c2cc(Cl)cc(F)c2-n2c(C)cnc21")
28.2
>>> measuredvalue("Cc1c(Cl)c(C(F)(F)F)cc2c1C(c1ccccn1)=N[C@@H](CCC(=O)OC(C)C(=O)OC(C)C)c1ncc(C)n1-2 (stereo partly shown)")
28.2
>>> measuredvalue("COC(=O)OCOC(=O)CC[C@@H]1N=C(c2ccccn2)c2cc(Cl)c(F)cc2-n2c(C)cnc21")
26.7

### Prompt So what does the record say about ED50 for CCOC(=O)C1(OC(=O)CC[C@@H]2N=C(c3ccccn3)c3cc(Cl)c(Cl)cc3-n3c(C)cnc32)CC1 ?
### Response 23.8
